Data provenance is paper PMC3441706.

- System: Non-Small Cell Lung Cancer cell lines
- METHOD_DESCRIPTION: NCI-60 DTP human tumor cell line screen (sulphorhodamine B)
- Assay type: cell-based
- TEST_SETTINGS: 9 cell lines, 48 hours incubation
pIC50: −log10 of the molar value.
OBSERVED_PROPERTY: pIC50

> print(dat)
                                molecule                            target.desc  reading
1  O=C(NNc1nc2cc(F)ccc2n2cccc12)c1cnccn1  Non-Small Cell Lung Cancer cell lines     6.76
